system: Fibroblast; experiment: Multiplex assay against human fibroblast; assay type: toxicity, cell-based; settings: 12 h, 1 µM, compound concentration 1 uM, replicate 1

| molecule | Population Pyknosed Nuclei (%) |
| --- | --- |
| O=C1N/C(=N/c2ccccc2F)S/C1=C\c1ccc(C(=O)O)cc1 | 32 |
| C=CCn1c(=O)c2cnc(Nc3ccc(N4CCN(C)CC4)cc3)nc2n1-c1cccc(C(C)(C)O)n1 [ADAVOSERTIB] | 8 |
| CCNc1cc(N[C@H]2CC[C@H](O)CC2)nc(Nc2ccc3c(ccn3Cc3ccccc3)c2)n1 | 7 |
| CCCS(=O)(=O)c1nc(NC2CC2)cc(-c2ccc3c(ccn3C3CC(C)(C)NC(C)(C)C3)c2)n1 | 30 |
| O=C(Nc1cccnn1)N1CCC(=Cc2cccc(Oc3ccc(C(F)(F)F)cn3)c2)CC1 | 18 |
| O=C(Nc1ccc(Cl)cc1)Nc1cccc(-c2cccc(N3CCCC3)n2)c1 | 26 |
| CCOc1cc2ncc(C#N)c(Nc3ccc(OCc4ccccn4)c(Cl)c3)c2cc1NC(=O)/C=C/CN(C)C [NERATINIB] | 41 |
| COc1ccc(S(=O)(=O)N(CCO)c2ccccc2CN(C)C/C=C/c2ccc(Cl)cc2)cc1.O=P(O)(O)O | 13 |
| CN1C2CCC1CC(OC(c1ccc(F)cc1)c1ccc(F)cc1)C2.Cl (centres undefined) | 27 |

FYI, the data here is from ChEMBL document CHEMBL4689842.
